Source listed as patent US20250333407A1.

# SYSTEM: WIZ (Homo sapiens, UniProt O95785+Q96SW2)
# Construct: HUDEP-2 cells engineered to express a HiBiT tag in either the WIZ (Widely interspaced zinc finger) or ZBTB7A
# Sequence (O95785 whole entry): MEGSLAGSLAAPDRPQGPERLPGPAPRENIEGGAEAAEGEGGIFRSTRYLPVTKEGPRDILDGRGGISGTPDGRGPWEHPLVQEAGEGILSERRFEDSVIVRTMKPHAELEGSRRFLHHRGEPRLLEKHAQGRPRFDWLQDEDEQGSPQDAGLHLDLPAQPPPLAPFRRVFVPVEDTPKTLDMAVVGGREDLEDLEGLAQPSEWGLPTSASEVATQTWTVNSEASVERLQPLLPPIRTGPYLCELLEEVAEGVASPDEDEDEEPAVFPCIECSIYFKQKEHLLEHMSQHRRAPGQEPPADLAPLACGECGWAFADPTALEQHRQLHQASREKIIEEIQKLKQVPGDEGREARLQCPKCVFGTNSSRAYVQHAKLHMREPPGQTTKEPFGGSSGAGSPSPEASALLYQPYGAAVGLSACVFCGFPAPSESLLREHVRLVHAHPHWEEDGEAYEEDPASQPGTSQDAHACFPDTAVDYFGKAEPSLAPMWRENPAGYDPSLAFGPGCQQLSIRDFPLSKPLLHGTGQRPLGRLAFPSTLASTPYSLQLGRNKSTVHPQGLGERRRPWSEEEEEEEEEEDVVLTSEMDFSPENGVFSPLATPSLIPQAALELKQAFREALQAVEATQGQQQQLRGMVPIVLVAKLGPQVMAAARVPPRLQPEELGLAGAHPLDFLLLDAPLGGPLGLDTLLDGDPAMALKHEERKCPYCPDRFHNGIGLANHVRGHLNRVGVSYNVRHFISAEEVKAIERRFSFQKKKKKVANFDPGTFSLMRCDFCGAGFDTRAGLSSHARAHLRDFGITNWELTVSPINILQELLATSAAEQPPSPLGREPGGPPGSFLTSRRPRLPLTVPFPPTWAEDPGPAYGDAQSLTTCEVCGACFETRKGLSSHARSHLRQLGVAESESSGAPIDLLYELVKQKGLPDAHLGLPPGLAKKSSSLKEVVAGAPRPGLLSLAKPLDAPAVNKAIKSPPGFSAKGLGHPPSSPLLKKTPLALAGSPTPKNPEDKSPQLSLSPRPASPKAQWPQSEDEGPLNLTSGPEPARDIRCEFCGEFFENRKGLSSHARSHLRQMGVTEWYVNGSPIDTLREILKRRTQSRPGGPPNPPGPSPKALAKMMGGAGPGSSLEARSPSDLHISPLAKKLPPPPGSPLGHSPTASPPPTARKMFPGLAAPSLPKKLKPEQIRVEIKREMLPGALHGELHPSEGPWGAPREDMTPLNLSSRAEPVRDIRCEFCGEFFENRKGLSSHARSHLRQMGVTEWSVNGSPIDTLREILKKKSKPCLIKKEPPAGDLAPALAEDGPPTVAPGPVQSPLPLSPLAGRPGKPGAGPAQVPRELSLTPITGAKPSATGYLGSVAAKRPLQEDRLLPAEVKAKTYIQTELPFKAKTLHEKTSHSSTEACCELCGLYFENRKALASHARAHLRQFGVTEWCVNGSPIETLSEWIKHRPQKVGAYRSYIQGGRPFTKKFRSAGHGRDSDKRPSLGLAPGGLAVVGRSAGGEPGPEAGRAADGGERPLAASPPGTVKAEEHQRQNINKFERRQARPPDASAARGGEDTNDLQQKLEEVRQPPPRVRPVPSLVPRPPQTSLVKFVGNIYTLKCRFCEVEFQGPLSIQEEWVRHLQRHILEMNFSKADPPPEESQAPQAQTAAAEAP
# Sequence (Q96SW2 whole entry): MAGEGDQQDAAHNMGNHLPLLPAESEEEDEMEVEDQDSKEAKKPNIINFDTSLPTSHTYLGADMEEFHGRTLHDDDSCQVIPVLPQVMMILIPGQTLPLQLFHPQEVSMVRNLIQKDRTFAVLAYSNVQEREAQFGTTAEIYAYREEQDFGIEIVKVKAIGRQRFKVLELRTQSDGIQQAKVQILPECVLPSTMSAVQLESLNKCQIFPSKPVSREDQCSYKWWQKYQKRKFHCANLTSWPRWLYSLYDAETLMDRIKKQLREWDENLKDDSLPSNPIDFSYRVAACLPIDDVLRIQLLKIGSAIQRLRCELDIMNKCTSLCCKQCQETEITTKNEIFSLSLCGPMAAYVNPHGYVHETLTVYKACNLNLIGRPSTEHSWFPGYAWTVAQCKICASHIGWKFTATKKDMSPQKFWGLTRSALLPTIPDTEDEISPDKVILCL
# Sequence (Q16531 whole entry partner): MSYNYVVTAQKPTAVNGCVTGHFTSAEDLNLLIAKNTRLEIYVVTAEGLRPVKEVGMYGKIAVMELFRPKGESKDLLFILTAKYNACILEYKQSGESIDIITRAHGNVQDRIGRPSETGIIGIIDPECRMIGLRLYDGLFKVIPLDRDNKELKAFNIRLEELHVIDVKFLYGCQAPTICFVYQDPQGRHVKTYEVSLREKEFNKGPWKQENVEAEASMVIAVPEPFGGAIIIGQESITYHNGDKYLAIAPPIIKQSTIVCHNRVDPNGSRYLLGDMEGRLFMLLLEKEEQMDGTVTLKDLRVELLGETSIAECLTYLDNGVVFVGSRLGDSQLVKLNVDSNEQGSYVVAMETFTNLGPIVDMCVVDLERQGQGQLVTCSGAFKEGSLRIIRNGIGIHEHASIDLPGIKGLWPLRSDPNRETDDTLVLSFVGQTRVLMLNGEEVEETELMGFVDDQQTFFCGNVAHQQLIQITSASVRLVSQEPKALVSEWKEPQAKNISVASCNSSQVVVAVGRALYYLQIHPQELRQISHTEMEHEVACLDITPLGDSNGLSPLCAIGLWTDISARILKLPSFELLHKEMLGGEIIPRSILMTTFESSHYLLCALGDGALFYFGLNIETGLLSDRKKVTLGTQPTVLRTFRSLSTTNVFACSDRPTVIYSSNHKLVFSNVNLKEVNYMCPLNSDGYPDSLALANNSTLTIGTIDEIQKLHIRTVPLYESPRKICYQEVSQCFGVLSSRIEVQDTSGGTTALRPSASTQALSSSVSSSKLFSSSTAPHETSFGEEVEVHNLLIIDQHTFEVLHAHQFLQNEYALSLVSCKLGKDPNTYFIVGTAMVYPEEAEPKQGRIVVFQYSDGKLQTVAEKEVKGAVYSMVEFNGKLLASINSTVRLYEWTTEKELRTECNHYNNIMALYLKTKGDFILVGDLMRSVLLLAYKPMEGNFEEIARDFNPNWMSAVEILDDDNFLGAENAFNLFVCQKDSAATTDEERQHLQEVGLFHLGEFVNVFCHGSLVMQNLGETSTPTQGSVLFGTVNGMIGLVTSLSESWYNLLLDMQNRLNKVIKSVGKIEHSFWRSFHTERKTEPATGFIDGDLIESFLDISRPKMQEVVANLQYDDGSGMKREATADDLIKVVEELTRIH
# PROTOCOL DESCRIPTION: HUDEP-2 WIZ HiBiT degradation assay
# Format: cell-based
# RUN PARAMETERS: HiBiT-tagged WIZ degradation in HUDEP-2 cells, 24 hours of treatment; read-out: WIZ EC50
# label = T if DC50 < 0.01 µM else F

Please indicate whether the reported DC50 of Cc1cc(-c2cc3c(cc2Nc2cccc4c2C(=O)N([C@H]2CCC(=O)NC2=O)C4=O)N(C2CC2)C(=O)CC3)ccn1 [Compound 88] is strictly below 0.01 µM.
T

Please indicate whether the reported DC50 of Cc1cc(-c2cc3c(cc2Nc2cccc4c2C(=O)N([C@H]2CCC(=O)NC2=O)C4=O)N(C)C(=O)CO3)cc(C(F)F)n1 [Compound 47] is strictly below 0.01 µM.
F

Please indicate whether the reported DC50 of Cc1cncc(-c2c(Nc3cccc4c3C(=O)N([C@H]3CCC(=O)NC3=O)C4=O)cc3c(c2F)OCC(=O)N3C)c1 [Compound 69] is strictly below 0.01 µM.
F

Please indicate whether the reported DC50 of Cc1cc(-c2cc3c(cc2Nc2cccc4c2C(=O)N([C@H]2CCC(=O)NC2=O)C4=O)N(C)C(=O)OC3C)cc(C)n1 (stereo partly shown) [Compound 72] is strictly below 0.01 µM.
F

Please indicate whether the reported DC50 of Cc1cc(-c2c(Nc3cccc4c3C(=O)N([C@H]3CCC(=O)NC3=O)C4=O)cc3c(c2F)C(C)OC(=O)N3C)ccn1 (stereo partly shown) [Compound 79] is strictly below 0.01 µM.
F

Please indicate whether the reported DC50 of Cc1cc(-c2cc3c(cc2Nc2cccc4c2C(=O)N([C@H]2CCC(=O)NC2=O)C4=O)N(C)C(=O)OC3C)ccn1 (stereo partly shown) [Compound 70] is strictly below 0.01 µM.
F

Please indicate whether the reported DC50 of CC[C@@H]1Oc2cc(-c3ccnc(C)c3)c(Nc3cccc4c3C(=O)N([C@H]3CCC(=O)NC3=O)C4=O)cc2N(C)C1=O [Compound 20] is strictly below 0.01 µM.
F

Please indicate whether the reported DC50 of CCOc1cc(-c2cc3c(cc2Nc2cccc4c2C(=O)N(C2CCC(=O)NC2=O)C4=O)N(C)C(=O)CO3)ccn1 (stereo not shown) [Compound 52] is strictly below 0.01 µM.
F

Please indicate whether the reported DC50 of COc1ccc(-c2cc3c(cc2Nc2cccc4c2C(=O)N([C@H]2CCC(=O)NC2=O)C4=O)N(C)C(=O)O[C@H]3C)cc1F [Compound 71] is strictly below 0.01 µM.
F

Please indicate whether the reported DC50 of Cc1cc(-c2cc3c(cc2Nc2cccc4c2C(=O)N([C@H]2CCC(=O)NC2=O)C4=O)N(C)C(=O)[C@H](C)O3)ccn1 [Compound 5] is strictly below 0.01 µM.
F

Please indicate whether the reported DC50 of CNc1cc(-c2cc3c(cc2Nc2cccc4c2C(=O)N(C2CCC(=O)NC2=O)C4=O)N(C)C(=O)CO3)c(F)cn1 (stereo not shown) [Compound 60] is strictly below 0.01 µM.
T

Please indicate whether the reported DC50 of COc1cc(-c2cc3c(cc2Nc2cccc4c2C(=O)N([C@H]2CCC(=O)NC2=O)C4=O)N(C)C(=O)CO3)ccn1 [Compound 17] is strictly below 0.01 µM.
F

Please indicate whether the reported DC50 of COc1cc(-c2cc3c(cc2Nc2cccc4c2C(=O)N([C@H]2CCC(=O)NC2=O)C4=O)N(C)C(=O)CO3)c(F)cn1 [Compound 28] is strictly below 0.01 µM.
F
